# PROTOCOL NOTES: water solubility of the active ingredient
# Assay type: physicochemical
MEASURED PROPERTY: solubility

- COMPOUND STRUCTURE: "CCC[C@@H]1CC(=O)N([C@@H](CC)C(N)=O)C1"
  MEASURED PROPERTY: "solubility"
  RECORDED MEASUREMENT: "~700 mg/mL"
